# Method summary: Drug excretion in overnight fasted C57BL/6N mouse assessed as elimination rate constant at 1 mg/kg, ip
# Format: ADME, organism-based
# Design: dose 1 mg/kg, route intraperitoneal
# Cond: in vivo, read-out: Drug excretion (converted)
Give k el for every item shown.
Numbers only, in s⁻¹.

[
  {
    "Compound": "CCNC(=O)[C@@H]1CCCN1C(=O)[C@H](CCCNC(=N)N)NC(=O)[C@H](CC(C)C)NC(=O)[C@@H](CC(C)C)NC(=O)[C@H](Cc1ccc(O)cc1)NC(=O)[C@H](CO)NC(=O)[C@H](Cc1c[nH]c2ccccc12)NC(=O)[C@H](Cc1c[nH]cn1)NC(=O)[C@@H]1CCC(=O)N1 [LEUPROLIDE]",
    "Readout kind": "k el",
    "Reported result": 0.000278
  }
]

Item: `CC(C)C[C@@H]1NC(=O)[C@@H](CC(C)C)NC(=O)[C@H](Cc2ccc(O)cc2)NC(=O)[C@H](CO)NC(=O)[C@H](Cc2c[nH]c3ccccc23)NC(=O)[C@H](Cc2cnc[nH]2)NC(=O)[C@@H]2CCCN2C(=O)C[C@H](C)NC(=O)[C@@H]2CCCN2C(=O)[C@H](CCCNC(=N)N)NC1=O` | k el: 0.000278

----------
# Method summary: AUC in overnight fasted C57BL/6N mouse at 1 mg/kg, ip
# Assay type: ADME, organism-based
# Set-up: dose 1 mg/kg, route intraperitoneal
# Cond: plasma
Readout kind: AUC (ng·h/mL)
Numbers only, in ng·h/mL.

[
  {
    "Compound": "CCNC(=O)[C@@H]1CCCN1C(=O)[C@H](CCCNC(=N)N)NC(=O)[C@H](CC(C)C)NC(=O)[C@@H](CC(C)C)NC(=O)[C@H](Cc1ccc(O)cc1)NC(=O)[C@H](CO)NC(=O)[C@H](Cc1c[nH]c2ccccc12)NC(=O)[C@H](Cc1c[nH]cn1)NC(=O)[C@@H]1CCC(=O)N1 [LEUPROLIDE]",
    "AUC / ng·h/mL": 138
  }
]

Item: `CC(C)C[C@@H]1NC(=O)[C@@H](CC(C)C)NC(=O)[C@H](Cc2ccc(O)cc2)NC(=O)[C@H](CO)NC(=O)[C@H](Cc2c[nH]c3ccccc23)NC(=O)[C@H](Cc2cnc[nH]2)NC(=O)[C@@H]2CCCN2C(=O)C[C@H](C)NC(=O)[C@@H]2CCCN2C(=O)[C@H](CCCNC(=N)N)NC1=O` | AUC: 808
